- targetSystem: mPGES-1 in A549 cells (Homo sapiens (Human), UniProt O14684)
- Sequence (O14684 whole entry): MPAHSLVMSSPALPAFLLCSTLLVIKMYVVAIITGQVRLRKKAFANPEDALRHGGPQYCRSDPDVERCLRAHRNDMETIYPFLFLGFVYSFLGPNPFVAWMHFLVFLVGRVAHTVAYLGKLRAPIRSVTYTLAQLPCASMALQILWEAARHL
- testMethodNotes: A549 cell-based assay (PGE2 formation, 50% human serum)
- conditionDetails: IL-1β 5 ng/ml, 10 nM arachidonic acid, 20-24 h, read-out: mPGES-1 inhibitory effect IC50 in the cell assay
measuredParameter: IC50 (nM)

Reference set (5 entries):
Data request: Hi! What's the reported IC50 for CN(c1cc2c(cc1C(=O)N[C@H]1CC[C@H](C(F)(F)F)CC1)nc(Nc1c(Cl)ccc(CNC(=O)C(C)(C)C)c1Cl)n2C)C1CCS(=O)(=O)C1 (some centres unmarked) on mPGES-1 in A549 cells (Homo sapiens (Human), UniProt O14684)?
Data returned: 1

Data request: Hi! What's the reported IC50 for Cn1c(Nc2c(Cl)ccc(CNC(=O)C(C)(C)C)c2Cl)nc2cc(C(=O)Nc3ccc(F)c(Cl)c3)c(N3CC4CC4C3)cc21 (centres unmarked) on mPGES-1 in A549 cells (Homo sapiens (Human), UniProt O14684)?
Data returned: 1

Data request: Hi! What's the reported IC50 for CC(C)C(NC(=O)c1cc2nc(Nc3c(Cl)ccc(CNC(=O)C(C)(C)C)c3Cl)n(C)c2cc1N1CCC(F)(F)C1)C(F)(F)F (centres unmarked) on mPGES-1 in A549 cells (Homo sapiens (Human), UniProt O14684)?
Data returned: 4

Data request: Hi! What's the reported IC50 for CC(C)(C)C(=O)NCc1ccc(Cl)c(Nc2nc3cc(C(=O)NCC(F)(F)C(F)(F)F)c(N4CCC(F)(F)CC4)cc3n2CC(F)F)c1Cl on mPGES-1 in A549 cells (Homo sapiens (Human), UniProt O14684)?
Data returned: 4

Data request: Hi! What's the reported IC50 for Cn1c(Nc2c(Cl)ccc(CNC(=O)C(C)(C)C)c2Cl)nc2cc(C(=O)N[C@H]3CC[C@H](C(F)(F)F)CC3)c(N3CCC(F)(F)C3)cc21 on mPGES-1 in A549 cells (Homo sapiens (Human), UniProt O14684)?
Data returned: 1

(I) CC(C)(C)C(=O)NCc1ccc(Cl)c(Nc2nc3cc(C(=O)NCC(F)(F)C(F)(F)F)c(N4CCC(C(F)(F)F)CC4)cc3n2CC(F)F)c1Cl
(II) Cn1c(Nc2c(Cl)ccc(CNC(=O)c3cccc(CO)n3)c2Cl)nc2cc(C(=O)N[C@H]3CC[C@H](C(F)(F)F)CC3)c(N3CC4CC4C3)cc21 (some centres unmarked)
(III) Cn1c(Nc2c(Cl)ccc(CNC(=O)C(C)(C)C(F)(F)F)c2Cl)nc2cc(C(=O)NCCC(F)(F)F)c(N3CCC(C(F)(F)F)CC3)cc21
(IV) Cn1c(Nc2c(Cl)ccc(CNC(=O)C(C)(C)C)c2Cl)nc2cc(C(=O)Nc3cccc(C(F)(F)F)n3)c(N3CC[C@@H](F)C3)cc21
Data request: Form: Sort by [IC50] Order [ ascending ] The reply should contain the labels ordered as requested.
Data returned: I, III, IV, II

====

- targetSystem: mPGES-1 in A549 cells (Homo sapiens (Human))
- testMethodNotes: A549 cell-based assay (PGE2 formation, 50% human serum)
- conditionDetails: IL-1β 5 ng/ml, 10 nM arachidonic acid, 20-24 h, read-out: mPGES-1 inhibitory effect IC50 in the cell assay
measuredParameter: IC50 (nM)

Reference set (3 entries):
Data request: State the recorded IC50 for this entry: Cn1c(Nc2c(Cl)ccc(CNC(=O)C(C)(C)F)c2Cl)nc2cc(C(=O)N[C@H]3CC[C@@H](C(F)(F)F)CC3)c(N3CCC(C(F)(F)F)CC3)cc21
Data returned: 2.4

Data request: State the recorded IC50 for this entry: Cn1c(Nc2c(Cl)ccc(CNC(=O)c3cccc(O)c3)c2Cl)nc2cc(C(=O)NCCC(F)(F)F)c(N3CCC(C(F)(F)F)CC3)cc21
Data returned: 28

Data request: State the recorded IC50 for this entry: Cn1c(Nc2c(Cl)ccc(CNC(=O)C(C)(C)F)c2Cl)nc2cc(C(=O)NCCC(F)(F)F)c(N3CCC(C(F)(F)F)CC3)cc21
Data returned: 2

(A) CNc1cncc(C(=O)NCc2ccc(Cl)c(Nc3nc4cc(C(=O)N[C@H]5CC[C@H](C(F)(F)F)CC5)c(N5CC6CC6C5)cc4n3C)c2Cl)n1 (stereo partly drawn)
(B) CN(CCS(C)(=O)=O)c1cc2c(cc1C(=O)N[C@H]1CC[C@H](C(F)(F)F)CC1)nc(Nc1c(Cl)ccc(CNC(=O)C(C)(C)C)c1Cl)n2C
Data request: Which gives the smaller IC50 number: A or B ? Label of pick, please.
Data returned: B
(B: 10 nM, A: 113 nM)
